Would you mind telling me the reported solubility at 2 h of each entry?
# measurement protocol: Kinetic Solubility Assay in pH 7.4 Buffer + 2% DMSO
# Type: physicochemical
# recorded conditions: phosphate-buffered saline pH 7.4 with 2% DMSO, aqueous buffer, kinetic from dmso stock, 25° C., two hours
# Protocol: Biological Example 9: Kinetic Solubility […] In parallel, using a 20 mM stock solution of the tested compounds in 100% DMSO, dilutions were prepared to theoretical concentrations of 0 μM (blank), 10 μM, 25 μM, 50 μM, 100 μM, and 200 μM in 50% acetonitrile/PBS with 2% final DMSO to generate calibration curves. […] 200 μL of each sample was transferred to a 96-well plate and measured in the 230-550 nm range with a 5 nm step. […]

- compound: "Cc1c(-c2ccn(C)n2)cn2nc(-c3nccn3C)nc(Nc3cc(-c4ccccn4)[nH]n3)c12 [Compound 265]"
  solubility at 2 h: "< 10 µM"
- compound: "Cc1c(-c2ccn(C)n2)cn2nc(-c3nccn3C)nc(Nc3ccc(N(C)C)cn3)c12 [Compound 227]"
  solubility at 2 h: "< 10 µM"
- compound: "COc1cc(-c2cn3nc(-c4nccn4C)nc(Nc4cc(OC)ncn4)c3c2C)ccn1 [Compound 50]"
  solubility at 2 h: "< 10 µM"
- compound: "COc1ccnc(Nc2nc(-c3nccn3C)nn3cc(-c4ccn(C(C)C)n4)c(C)c23)n1 [Compound 53]"
  solubility at 2 h: "10 to 30 µM"

Continue with the next compound.
Cc1c(-c2ccn(C(C)C)n2)cn2nc(-c3nccn3C)nc(Nc3ccccn3)c12 [Compound 57] yielded solubility at 2 h of 10 to 30 µM

----------
# Test system: KRas Q61H mutant
# measurement protocol: Ras GTP Binding Domain Inhibition Assay (Ras Superfamily Assay)
# recorded conditions: 20 μM compound, with SOS
Counter-ions that a name gives are not always drawn.
measurement type: KRas Q61H mutant + SOS: % inh.

- compound: "CO[C@H]1CC[C@@H](Nc2nc(-c3nccn3C)nn3cc(-c4ccn(C(C)C)n4)c(-c4ccccc4)c23)C1 (racemic) [Compound 18, hydrochloride]"
  result: "A (A = 1-25% inhibition)"
- compound: "COc1cccc(Nc2nc(-c3nccn3C)nn3ccc(-c4ccccc4)c23)n1"
  result: "A (A = 1-25% inhibition)"
- compound: "Cc1c(-c2ccn(C(C)C)n2)cn2nc(-c3ccccn3)nc(O)c12"
  result: "0 (0 = 0% inhibition)"
- compound: "CO[C@H]1CC[C@@H](Nc2nc(-c3nccn3C)nn3cc(-c4ccn(C(C)C)n4)c(C)c23)C1 (racemic)"
  result: "0 (0 = 0% inhibition)"

----------
# System: KRas Q61H mutant
# measurement protocol: Ras GTP Binding Domain Inhibition Assay (Ras Superfamily Assay)
# recorded conditions: 20 μM compound, without SOS
measurement type: KRas Q61H mutant: % inh.

- molecule: "CO[C@H]1CC[C@@H](Nc2nc(-c3nccn3C)nn3cc(-c4ccn(C(C)C)n4)c(C(C)C)c23)C1 (racemic)"
  result: "A (A = 1-25% inhibition)"
- molecule: "COc1cccc(-c2cn3nc(-c4nccn4C)nc(N[C@@H]4CC[C@H](OC)C4)c3c2-c2ccccc2)c1Cl (racemic)"
  result: "A (A = 1-25% inhibition)"
- molecule: "CO[C@H]1CC[C@@H](Nc2nc(-c3ccccn3)nn3cc(-c4ccn(C(C)C)n4)c(C)c23)C1 (racemic)"
  result: "A (A = 1-25% inhibition)"

----------
# Test system: KRas G12D mutant
# measurement protocol: Ras GTP Binding Domain Inhibition Assay (Ras Superfamily Assay)
# recorded conditions: 20 μM compound, without SOS
measurement type: KRas G12D mutant: % inh.

- molecule: "Cc1c(-c2ccn(C(C)C)n2)cn2nc(-c3nccn3C)nc(Nc3nc(C4CC4)no3)c12"
  target of assay: "KRas G12D mutant"
  result: "A (A = 1-25% inhibition)"
- molecule: "COc1cccc(-c2cn3nc(-c4nccn4C)nc(N[C@@H]4CC[C@@H](OC)C4)c3c2-c2ccccc2)c1F (racemic)"
  target of assay: "KRas G12D mutant"
  result: "A (A = 1-25% inhibition)"

----------
# System: Erk1/2 phosphorylation
# measurement protocol: Erk1/2 Phosphorylation Assay (western blot), Panc-1
# Format: cell-based, human
# recorded conditions: at 10 μM, * = activation
measurement type: % inh of Erk1/2 phosphorylation in Panc-1

Answered examples (5):
- compound: "CC(C)n1ccc(-c2cn3nc(-c4nccn4C)nc(O)c3c2-c2ccccc2)n1"
  result: "A (1-25% inhibition)"
- compound: "CO[C@@H]1CC[C@@H](Nc2nc(-c3nccn3C)nn3cc(-c4cccnc4)c(C)c23)C1 (racemic)"
  result: "C* (46-84% activation)"
- compound: "COc1ccnc(N(C)c2nc(-c3nccn3C)nn3cc(-c4ccn(C)n4)c(C)c23)c1"
  result: "A (1-25% inhibition)"
- compound: "Cc1c(-c2ccn(C)n2)cn2nc(-c3nccn3C)nc(Nc3ccc(-n4ccnc4)cn3)c12"
  result: "0 (0% inhibition)"
- compound: "CO[C@H]1C[C@@H](Nc2nc(-c3nccn3C)nn3cc(-c4ccncc4)c(-c4ccccc4)c23)C1"
  result: "D* (85-100% activation)"

Give one value of % inh of Erk1/2 phosphorylation in Panc-1 per listed compound.
1. Cc1c(-c2ccn(C)n2)cn2nc(-c3nccn3C)nc(Nc3cc4n(n3)CCC4)c12
2. COc1cnc(Nc2nc(-c3nccn3C)nn3cc(-c4ccn(C)n4)c(C)c23)cn1
3. COC1CCCN(c2nc(-c3ccccn3)nn3cc(-c4ccn(C(C)C)n4)c(-c4ccccc4)c23)C1 (racemic)
4. COc1cccc(-c2cn3nc(-c4nccn4C)nc(N[C@@H]4CC[C@@H](OC)C4)c3c2-c2ccccn2)c1F (racemic)
5. COc1cc(Nc2nc(-c3nccn3C)nn3cc(-c4ccn(C(C)C)n4)c(C)c23)ncn1
6. COc1cccc(-c2cn3nc(-c4nccn4C)nc(O)c3c2-c2ccccc2)c1Cl

1: C* (46-84% activation); 2: B* (26-49% activation); 3: 0 (0% inhibition); 4: 0 (0% inhibition); 5: 0 (0% inhibition); 6: 0 (0% inhibition)

Give one value of % inh of Erk1/2 phosphorylation in Panc-1 per listed compound.
1. COc1ccc(Nc2nc(-c3nccn3C)nn3cc(-c4ccn(C)n4)c(C)c23)nc1
2. COc1ccnc(Nc2nc(-c3nccn3CCNC(=O)CCCC[C@H]3SC[C@H]4NC(=O)N[C@H]43)nn3cc(-c4ccn(C)n4)c(C)c23)c1
3. COCCNc1nc(-c2nccn2C)nn2cc(-c3cccnc3)c(-c3ccccc3)c12
4. Cc1c(-c2ccn(C3CC3)n2)cn2nc(-c3nccn3C)nc(Nc3ccccn3)c12

1: C* (46-84% activation); 2: C* (46-84% activation); 3: B* (26-49% activation); 4: D* (85-100% activation)

----------
# System: KRas G12D mutant
# measurement protocol: Ras GTP Binding Domain Inhibition Assay (Ras Superfamily Assay)
# recorded conditions: 20 μM compound, without SOS
measurement type: KRas G12D mutant: % inh.

Answered examples (5):
- compound: "CO[C@H]1CC[C@H](Nc2nc(-c3nccn3C)nn3cc(-c4ccn(C)n4)c(C(=O)NCCN4CCOCC4)c23)C1 (racemic) [Compound 185]"
  target of assay: "KRas G12D mutant"
  result: "A (A = 1-25% inhibition)"
- compound: "COc1cc(-c2cn3nc(-c4nccn4C)nc(N[C@@H]4CC[C@@H](OC)C4)c3c2C)ccn1 (racemic) [Compound 163]"
  target of assay: "KRas G12D mutant"
  result: "0 (0 = 0% inhibition)"
- compound: "COc1cc(-c2cn3nc(-c4nccn4C)nc(N[C@H]4C[C@H](OC)C4)c3c2C)ccn1 [Compound 160]"
  target of assay: "KRas G12D mutant"
  result: "0 (0 = 0% inhibition)"
- compound: "COC1CCCN(c2nc(-c3ccccn3)nn3cc(-c4ccn(C(C)C)n4)c(-c4ccccc4)c23)C1 (racemic) [Compound 27]"
  target of assay: "KRas G12D mutant"
  result: "0 (0 = 0% inhibition)"
- compound: "COc1ncc(Nc2nc(-c3nccn3C)nn3cc(-c4ccn(C(C)C)n4)c(C)c23)cn1 [Compound 80]"
  target of assay: "KRas G12D mutant"
  result: "A (A = 1-25% inhibition)"

Give one value of KRas G12D mutant: % inh. per listed compound.
1. COC[C@@H]1CC[C@@H]1CNc1nc(-c2ccccn2)nn2cc(-c3ccn(C(C)C)n3)c(C)c12 (racemic) [Compound 11]
2. COCCNc1nc(-c2nccn2C)nn2cc(-c3cccc(OC)c3Cl)c(-c3ccccc3)c12 [Compound 29]
3. Cc1c(-c2ccn(C(C)C)n2)cn2nc(-c3nccn3C)nc(Nc3ncc(C4CC4)o3)c12 [Compound 90]
4. CO[C@H]1CC[C@@H](Nc2nc(-c3nccn3C)nn3cc(-c4cccnc4)c(C)c23)C1 (racemic) [Compound 155]
5. COC1CCCN(c2nc(-c3ccccn3)nn3cc(-c4ccn(C(C)C)n4)c(C)c23)C1 (racemic) [Compound 12]

1: A (A = 1-25% inhibition); 2: 0 (0 = 0% inhibition); 3: 0 (0 = 0% inhibition); 4: A (A = 1-25% inhibition); 5: A (A = 1-25% inhibition)
